Consider the following compounds and their measured IC50 readings.
- tgt: DNA dC->dU-editing enzyme APOBEC-3G (Homo sapiens, UniProt Q9HC16)
- Sequence (Q9HC16 whole entry): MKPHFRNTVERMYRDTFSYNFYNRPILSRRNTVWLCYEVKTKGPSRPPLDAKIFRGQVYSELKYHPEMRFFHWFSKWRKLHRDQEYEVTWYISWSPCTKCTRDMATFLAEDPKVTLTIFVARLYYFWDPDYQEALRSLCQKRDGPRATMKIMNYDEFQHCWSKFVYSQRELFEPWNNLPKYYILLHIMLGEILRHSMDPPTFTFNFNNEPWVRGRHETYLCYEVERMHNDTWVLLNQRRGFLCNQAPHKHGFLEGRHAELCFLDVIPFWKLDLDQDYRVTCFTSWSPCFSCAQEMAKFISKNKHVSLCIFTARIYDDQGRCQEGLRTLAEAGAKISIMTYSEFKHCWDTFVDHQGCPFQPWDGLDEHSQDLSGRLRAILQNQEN
- Assay type: functional
The source made the active and inactive calls.
valueType: IC50

structuresmilesstring=Cn1nnnc1SCC(=O)Nc1ccc(Br)cc1Cl valuetype=IC50 measurement="9.75 µM (active)"
structuresmilesstring=CCCCN(C(=O)c1cnccn1)c1c(N)n(CCC)c(=O)[nH]c1=O valuetype=IC50 measurement="15.5 µM (active)"
structuresmilesstring=C[N+]1(CC(=O)OCCCc2ccccc2)CCOCC1 valuetype=IC50 measurement="1.93 µM (active)"
structuresmilesstring=CC(C)(C)NC(=O)CSc1nc2ccc(NC(=O)CSc3nnc(N)s3)cc2s1 valuetype=IC50 measurement="18.4 µM (active)"
